# Test system: NCI-H226 lung
# procedure_text: NCI tumour cell line growth inhibition, 48 h
outcome_measure: TGI

> print(dat)
                                   molecule  recorded.measurement
1  COc1cc2c(c(OC)c1OC)-c1c(c3ccc([N+](=O)[O-])cc3c(=O)n1CCCBr)C2=O               68.5 µM
2  OCC(O)COCn1cc(Cn2ncc3c(NCc4ccccc4)ncnc32)nn1 (stereo unspecified)              > 100 µM
3                     c1ccc(SCCc2ccncc2)cc1              > 100 µM
4  COc1nc2ccc(CNc3ccc(C(=O)NC(CCC(=O)O)C(=O)O)cc3)cc2nc1OC (stereo unspecified)              > 100 µM
5  O=C(Nc1ccccc1Cl)c1ccc(NC2=C(Cl)C(=O)N(C3CCCCC3)C2=O)cc1               31.8 µM

Memo: COC(=O)/C=C\C(C#N)(C#N)N=Cc1cccs1 , reported TGI: 20.7 µM

Memo: S=C1SCN(Cc2ccccc2)CN1Cc1ccccc1 , reported TGI: > 50.8 µM

Memo: Cc1oc2nc(N(C)C)nc(NN)c2c1C , reported TGI: > 100 µM

Memo: Cc1[nH]c2ccccc2c1C1=NO/C(=N\O)C(c2c(C)[nH]c3ccccc23)C1 (stereo unspecified) , reported TGI: > 100 µM

Memo: COc1cc2c(cc1O)c(=O)n(CCN(C)C)c1c3cc4c(cc3ncc21)OCO4 , reported TGI: 0.124 µM

Memo: CC(=O)C1C(=O)C(C(C)=O)C2C3C=CC(C3)C12 (stereo unspecified) , reported TGI: > 100 µM

FYI, the data here is from PubChem BioAssay (NCI).
